Reference source for all entries: ChEMBL document CHEMBL4184157

species: Oryctolagus cuniculus; assay: Inhibition of trypsin-like activity of rabbit erythrocyte 20S proteasome beta2 subunit at 100 uM using BocLRR-AMC as substrate preincubated for 5 mins followed by substrate addition measured after 45 mins by fluorescence assay
Calls of active or inactive are those of the source. The calls are words filed in the database; no cut-off is given here.
experimental_readout: inhibition

Some molecules with known inhibition results, for comparison:
molecule	reported_result
NCC1(c2cccs2)CCOCC1	inactive
COc1ccccc1OCC(O)CNCC1(c2cccs2)CCCC1 (stereo not given)	48%
Cc1ccc(OCC(O)CNCC2(c3cccs3)CCOCC2)cc1 (stereo not given)	49%
NCC1(c2cccs2)CCCCC1	inactive
Cc1ccc(OCC(O)CNCC2(c3cccs3)CCCCC2)cc1 (stereo not given)	36%
OC(CNCC1(c2cccs2)CCCCC1)COc1ccccc1 (stereo not given)	inactive

Task item: What value of inhibition has been reported for the following molecule? COc1ccccc1OCC(O)CNCC1(c2cccs2)CCCCC1 (stereo not given)
Reply: 40%

Task item: What do you get for OC(CNCC1(c2cccs2)CCCC1)COc1ccc(Cl)cc1 (stereo not given) ?
Reply: 42%

Task item: Moving on to the next molecule: OC(CNCC1(c2cccs2)CCOCC1)COc1ccc(Cl)cc1 (stereo not given)
Reply: 53%

Task item: Try Cc1ccc(OCC(O)CNCC2(c3cccs3)CCCC2)cc1 (stereo not given) next.
Reply: 38%

====

experiment: Inhibition of caspase-like activity of rabbit erythrocyte 20S proteasome beta1 subunit using Z-LLE-betaNA as substrate preincubated for 15 mins followed by substrate addition measured after 45 mins by fluorescence assay; set-up: species or system Oryctolagus cuniculus
experimental_readout: pIC50
Quick note: pIC50 values are minus log10 of concentrations in mol/L.

Task item: Recorded pIC50 for OC(CNCC1(c2cccs2)CCCCC1)COc1ccccc1 (centres undefined) , please?
Reply: 4.74

Task item: # repeat for OC(CNCC1(c2cccs2)CCCC1)COc1ccc(Cl)cc1 (centres undefined)
Reply: 4.74

Task item: Proceed to COc1ccccc1OCC(O)CNCC1(c2cccs2)CCCC1 (centres undefined)
Reply: 4.44

Task item: Next molecule: Cc1ccc(OCC(O)CNCC2(c3cccs3)CCCCC2)cc1 (centres undefined)
Reply: 4.52

Task item: Input OC(CNCC1(c2cccs2)CCCC1)COc1ccccc1 (centres undefined)
Reply: 4.18

Task item: Now the same for CC1(C)OC(=O)c2c1ccn(CCc1ccccc1)c2=O
Reply: 4.32

====

species on record: Oryctolagus cuniculus; test: Inhibition of trypsin-like activity of rabbit erythrocyte 20S proteasome beta2 subunit at 100 uM using BocLRR-AMC as substrate preincubated for 5 mins followed by substrate addition measured after 45 mins by fluorescence assay
Active and inactive are the calls of the source. The rule behind the calls is not given here.
experimental_readout: inhibition

Some solved entries appear below for comparison.
compound	inhibition
NCC1(c2cccs2)CCCC1	inactive
OC(CNCC1(c2cccs2)CCOCC1)COc1ccccc1 (stereo not given)	39%
OC(CNCC1(c2cccs2)CCCCC1)COc1ccc(Cl)cc1 (stereo not given)	inactive
COc1ccccc1OCC(O)CNCC1(c2cccs2)CCOCC1 (stereo not given)	inactive

Task item: Requested read-out: inhibition. Entry: OC(CNCC1(c2cccs2)CCCC1)COc1ccccc1 (stereo not given)
Reply: 41%

====

assay: Inhibition of caspase-like activity of rabbit erythrocyte 20S proteasome beta1 subunit using Z-LLE-betaNA as substrate preincubated for 15 mins followed by substrate addition measured after 45 mins by fluorescence assay; set-up: species or system Oryctolagus cuniculus
experimental_readout: pIC50
pIC50 (log units): -log10 of the concentration in mol/L.

Task item: Please give the measured pIC50 for this compound: COc1ccccc1OCC(O)CNCC1(c2cccs2)CCCCC1 (stereo not drawn)
Reply: 4.66

Task item: Thanks! And OC(CNCC1(c2cccs2)CCCCC1)COc1ccc(Cl)cc1 (stereo not drawn) ?
Reply: 4.89

Task item: Also check Cc1ccc(OCC(O)CNCC2(c3cccs3)CCCC2)cc1 (stereo not drawn)
Reply: 4.62
